IC50 data for GSK-3β (Homo sapiens, UniProt P49841) follow.
Answer in nM, number only, no unit symbol.

Take a look at these entries with their results.
compound="COc1ccccc1-c1ccncc1-c1cc2[nH]nc(NC(=O)C(C)C)c2s1 [Compound 18e]" parameter=IC50 quantitative_result=64
compound="CCCC(=O)Nc1n[nH]c2cc(-c3cncc(-c4ccccc4)c3)sc12 [Compound 17c]" parameter=IC50 quantitative_result=37
compound="COc1cccc(-c2ccncc2-c2cc3[nH]nc(NC(=O)C(C)C)c3s2)c1 [Compound 18f]" parameter=IC50 quantitative_result=113
compound="Cc1cccc(-c2ccncc2-c2cc3[nH]nc(NC(=O)C(C)C)c3s2)c1 [Compound 18c]" parameter=IC50 quantitative_result=153

Please find the next compound below.
[Q] Can you look up the measured IC50 of CC(C)C(=O)Nc1n[nH]c2cc(-c3cnccc3-c3ccc4ccccc4c3)sc12 [Compound 18n] for me?
[A] 195
